The origin of these recorded values is PubChem BioAssay AID806.

# Tested on: virus-infected cells, CPE inhibition, dose response
# protocol notes: PubChem AID 806
# experimental setup: measured here: EC90 CPE inhibition
property: EC90

[in] Request body: readout EC90, system virus-infected cells, CPE inhibition, dose response, query "CCSc1nnc(-c2ccc(OC)cc2)o1" . Return the value.
[out] > 60 µM

[in] Request body: readout EC90, system virus-infected cells, CPE inhibition, dose response, query "O=C(O)c1cccc(Nc2ncnc3c2cnn3-c2ccccc2)c1" . Return the value.
[out] > 60 µM

[in] Request body: readout EC90, system virus-infected cells, CPE inhibition, dose response, query O=C1CC(C(=O)Nc2ccc(Br)cc2)C2(CCCC2)O1 (configuration not stated) . Return the value.
[out] > 60 µM

[in] Request body: readout EC90, system virus-infected cells, CPE inhibition, dose response, query "O=C(CCS(=O)(=O)c1cccc2nsnc12)NCc1ccccc1Cl" . Return the value.
[out] > 60 µM

[in] Request body: readout EC90, system virus-infected cells, CPE inhibition, dose response, query "N#CCCCSc1nnc(-c2ccccn2)o1" . Return the value.
[out] > 60 µM

[in] Request body: readout EC90, system virus-infected cells, CPE inhibition, dose response, query "Cc1ccc(OCC(=O)Nc2ccc(-c3nnc(-c4ccco4)o3)cc2)cc1" . Return the value.
[out] > 60 µM

[in] Request body: readout EC90, system virus-infected cells, CPE inhibition, dose response, query O=C(NCc1ccco1)C1CCCCN1S(=O)(=O)c1ccc(F)cc1 (configuration not stated) . Return the value.
[out] > 60 µM

[in] Request body: readout EC90, system virus-infected cells, CPE inhibition, dose response, query COc1ccc(NC(=O)C2CCCCN2S(=O)(=O)c2ccc(F)cc2)c(OC)c1 (configuration not stated) . Return the value.
[out] > 60 µM

[in] Request body: readout EC90, system virus-infected cells, CPE inhibition, dose response, query "CCOC(=O)/C=c1\s/c(=C\c2ccccc2OC)c(=O)n1CC(=O)N1CCOCC1" . Return the value.
[out] > 60 µM

[in] Request body: readout EC90, system virus-infected cells, CPE inhibition, dose response, query COC(=O)Nc1ccc(S(=O)(=O)N2CCCCC2C(=O)NCc2ccco2)cc1 (configuration not stated) . Return the value.
[out] > 60 µM

[in] Request body: readout EC90, system virus-infected cells, CPE inhibition, dose response, query "CC(C)NC(=O)CN1CCN(c2ncccn2)CC1" . Return the value.
[out] > 60 µM

[in] Request body: readout EC90, system virus-infected cells, CPE inhibition, dose response, query "O=C(Nc1cccnc1)c1cc2c(ccc3ccccc32)o1" . Return the value.
[out] > 60 µM
